- Test system: SF-295 CNS
- Assay procedure: NCI-60 one-dose screen, 48 h
- Experimental parameters: 10 µM unless noted
The panel holds about 83,000 compounds, 20% with a hit somewhere; the sample as a whole holds those more often. The source made the active and inactive calls. How the source made its calls: active means growth percent below 10; inactive means the rest.
Can you answer with just one of these options? active, inactive

-- ask How did this test come out for Cc1nc([N+](=O)[O-])c(Sc2nncc(-c3ccccc3)n2)n1C ?
-- reply inactive

-- ask Query: recorded result category for O=[n+]1c2ccccc2n([O-])c2cc(Cl)ccc21 in this test
-- reply inactive

-- ask Hello, I am checking results. What call was entered for CC(CSc1n[nH]c(=S)s1)c1ccccc1 (configuration not stated) ?
-- reply inactive

-- ask Record lookup: outcome of this test for S=c1[nH]c2cc(Cl)ccc2s1 ?
-- reply inactive

-- ask Name the outcome recorded for O=C(CCl)N1c2ccccc2Sc2c1ccc1ccccc21 in the assay.
-- reply inactive

-- ask Tell me the recorded outcome of this test for Cc1nc(Sc2nc3ccc([N+](=O)[O-])cc3s2)sc1C .
-- reply inactive

-- ask What did this assay record as the result for COC1=CC(=O)c2c(O)c3c(c(O)c2C1=O)CC(C)(O)OC3 (configuration not stated) ?
-- reply active

-- ask Could you check what this test reported for Cn1c(-c2ccccc2)c(/C=C/C2=[N+](C)c3ccccc3C2(C)C)c2ccccc21 ?
-- reply inactive

-- ask How did this test come out for O=C(CBr)c1ccc(OC(=O)c2ccccc2)cc1 ?
-- reply inactive

-- ask Answer briefly: the call reported for COc1cc(-c2ccc(-[n+]3nc(-c4ccc([N+](=O)[O-])cc4)nn3-c3ccc([N+](=O)[O-])cc3)c(OC)c2)ccc1-[n+]1nc(-c2ccc([N+](=O)[O-])cc2)nn1-c1ccc([N+](=O)[O-])cc1 in this assay.
-- reply active

-- ask Would you mind telling me which call this test gave CC(C)N=C(N)/N=C(\N)Nc1ccc2ccc3ccccc3c2c1 ?
-- reply active

-- ask Recorded test call requested for CC1CC(C)(C)OB(OC(C)CC(C)(C)OB2OC(C)CC(C)(C)O2)O1 (configuration not stated)
-- reply inactive

-- ask What call does the record list for CCOC(=O)C1(C)CCCC1N (configuration not stated) ?
-- reply inactive

-- ask Which outcome was entered for the compound COc1cc([C@@H]2c3cc4c(cc3[C@H](OC3OC5COC(c6ccccc6)OC5C(O)C3O)[C@H]3COC(=O)[C@H]23)OCO4)cc(OC)c1OC (some centres not stated) in this test?
-- reply inactive

-- ask What is the recorded call for this compound in the test? CN=C(N)N/N=C(\C)c1ccc2c(c1)Cc1ccccc1-2
-- reply active

-- ask Test call, this compound: CCCCCCCCCCCC[n+]1ccc(CCCCCCCCC)cc1
-- reply active

-- ask Field: outcome | Entry: Clc1ccc(-n2ncc3c(NCCCN4CCOCC4)ncnc32)cc1
-- reply inactive

====

- Test system: HCT-15 colon
- Assay procedure: NCI-60 one-dose screen, 48 h (100 = growth as untreated, 0 = no growth, -100 = all killed)
- Experimental parameters: 10 µM unless noted
This is part of a sample that, as a whole, favours compounds with a hit. Of some 83,000 tested, about 20% had one in any assay. Active and inactive are the calls of the source. Rule for the calls: active = growth percent below 10; inactive = the rest. Where a SMILES comes first, the peptide text is derived from it. [ ]: non-standard residue; d: D form. ξ: configuration not given here. ξD = NC(CC(=O)O)C(=O)O
Value type: growth

-- ask # input compound: C[C@@]1(CO)[C@H](O)CC[C@@]2(C)[C@H]1CC[C@H]1C[C@@H]3C[C@@]12CC[C@@]3(O)COC(=O)CN ; wanted: its growth
-- reply 54% (inactive)

-- ask Could you share which growth value was measured for O=C(c1ccccc1)C(Br)[N+](=O)[O-] (stereo unspecified) ?
-- reply 78.1% (inactive)

-- ask Fill in the blank: the reported growth of CN(C)c1ccc(C(=C2C=CC(=[N+](C)C)C=C2)c2ccc(N(C)C)cc2)cc1 is ____.
-- reply -19.3% (active)

-- ask For the compound shown here, Cc1oc2c(C)c3oc(=O)cc(C)c3cc2c1CCl , give the reported growth.
-- reply 91.8% (inactive)

-- ask // lookup growth for Cc1c(O)ccc(SC#N)c1C
-- reply 96.9% (inactive)

-- ask // returns reported growth for input Nc1nc(N)c2cc(Sc3cccc(C(F)(F)F)c3)ccc2n1
-- reply 24.3% (inactive)

-- ask Field request: growth | item: S=C=Nc1ccc(N2CCOCC2)cc1
-- reply 90.5% (inactive)

-- ask Value lookup for growth; key = O=[N+]([O-])c1ccc([I+]c2ccccc2)cc1
-- reply 62.1% (inactive)

-- ask // query growth value for entry CN(C)CCN(C)CC(C)(C)C(=O)/C=C/c1ccc(Cl)c(Cl)c1
-- reply -86.4% [100 µM] (active)

-- ask Please give the measured growth for this compound: Cc1cccc2c(N)c3ccccc3nc12
-- reply -8.39% (active)

-- ask Which value of growth has been reported for Cc1cc(I)nc2ccccc12 in the records?
-- reply 105% (inactive)

-- ask Given the entry CCCCCC/C=C1\CCC(CN2CCCC2)C1=O (stereo unspecified) , report its measured growth.
-- reply 77.1% (inactive)

-- ask Given NCC(=O)NC(CC(=O)O)C(=O)O (stereo unspecified) (H-Gly-[ξD]-OH) , state its recorded growth.
-- reply 105% (inactive)

-- ask Value lookup for growth; key = CCOC(=O)C1=NN(c2ccccc2)C(=O)/C1=C\N1C(=O)/C(=C/c2cccc(O)c2)SC1=S
-- reply 109% (inactive)

-- ask What does the data say about its growth? Entry: CCCCCCCCCCCCNCCCc1ccccc1
-- reply 23.9% (inactive)

-- ask May I ask what growth has been recorded for O=C1C=CC(O)=CC1=P(c1ccccc1)(c1ccccc1)c1ccccc1 ?
-- reply 96.2% (inactive)

-- ask # get_value(readout='growth', item= COC(=O)c1cc([N+](=O)[O-])cc([N+](=O)[O-])c1Cl )
-- reply -4.09% (active)

-- ask Sample CCN1/C(=C/C(C)=C/c2sc3ccc4ccccc4c3[n+]2CC)Sc2ccc3ccccc3c21 — what was its growth?
-- reply -81.8% (active)

-- ask So what's the measured growth for this one? O=C(O)c1ccc2c(c1)C(=O)c1ccccc1C2=O
-- reply 106% (inactive)

-- ask Any idea what growth was measured for Cc1nc([N+](=O)[O-])c(Sc2nncc(-c3ccccc3)n2)n1C ?
-- reply 68% (inactive)

-- ask What value of measured growth is listed for O=C(Nc1cccc(C(F)(F)F)c1)Oc1ccc(Cl)c2cccnc12 ?
-- reply 2.21% (active)

-- ask For the compound shown here, O/N=C1\c2ccccc2-c2ccc(F)cc21 , give the reported growth.
-- reply 74.6% (inactive)

-- ask Give the measured growth of CC1=CC(=O)C=CC1(C)C(Cl)(Cl)Cl (stereo unspecified) .
-- reply 97.3% (inactive)

-- ask Entry under review: CCC(C)(O)Cc1ccc(Cl)cc1 (stereo unspecified) . Reported growth?
-- reply 103% (inactive)

-- ask I am curious: what growth value has been reported for O=C(c1ccccc1)c1ccc(O)c2ncccc12 ?
-- reply 25.7% (inactive)

-- ask Report growth for CCc1oc2ccccc2c1C(=O)c1cc(Br)c(O)c(Br)c1 please.
-- reply 62.5% (inactive)

-- ask GET /values?readout=growth&item= NNc1cccc([N+](=O)[O-])c1
-- reply 101% (inactive)

-- ask Given the compound COc1c(C)c2c(c(O)c1C/C=C(\C)CCC(=O)O)C(=O)OC2 , what is its reported growth?
-- reply 20.7% (inactive)

-- ask So what does the record say about growth for O=[N+]([O-])c1cc(-c2ccccc2)c(O)c([N+](=O)[O-])c1 ?
-- reply 79.4% (inactive)

-- ask Report growth for O=C(OC12CC3CC(CC(C3)C1)C2)c1ccc(NCc2cc(O)ccc2O)cc1 please.
-- reply -41.9% (active)

-- ask Value lookup for growth; key = Oc1c(Cl)cc(Cl)cc1C(c1cc(Cl)cc(Cl)c1O)C(Cl)(Cl)Cl
-- reply 2.87% (active)

-- ask # growth lookup, item COc1cc([C@@H]2c3cc4c(cc3[C@H](OC3OC5COC(c6ccccc6)OC5C(O)C3O)[C@H]3COC(=O)[C@H]23)OCO4)cc(OC)c1OC (stereo partly specified)
-- reply 41.1% (inactive)

-- ask Suppose we examine the compound CC(C)(C)CC(C)(C)c1ccc(OCCOCCSC(=N)N)cc1 ; what growth value has been reported?
-- reply 0.972% (active)

-- ask Can you share its growth? I mean this compound: CC(=O)Nc1ccc(C(=O)CCl)cc1
-- reply 6.54% (active)

-- ask Need growth of O=[n+]1c2ccccc2n([O-])c2cc(Cl)ccc21 , thanks.
-- reply 43.7% (inactive)

-- ask Returns the measured growth for the input compound. Input: O=C(/C=C/C(Cl)(Cl)Cl)Nc1ccc(Cl)cc1
-- reply 88.3% (inactive)

-- ask # get_value(readout='growth', item= O=C1/C(=C\c2ccc([N+](=O)[O-])cc2)CS(=O)(=O)C/C1=C/c1ccc([N+](=O)[O-])cc1 )
-- reply -86.7% (active)

-- ask Which growth is reported for this compound? O=C1C(=O)c2cccnc2-c2ncccc21
-- reply -20.5% (active)

-- ask Param item = CC(=O)N1CC(=O)NC1=S ; retrieve measured growth.
-- reply 99.9% (inactive)

-- ask Entry O=[N+]([O-])c1ccc(N2CCN(Cc3ccccc3)CC2)c2c1no[n+]2[O-] has what growth?
-- reply -52.8% (active)

-- ask Would you kindly share the measured growth for O=C(O)c1cccc2cccc(-c3c4ccc(=O)c(O)c-4oc4c(O)c(O)ccc34)c12 ?
-- reply 105% (inactive)
